- Measurement Description: Cmax in Sprague-Dawley rat at 10 mg/kg, po by LC-MS/MS analysis
- Format: ADME, organism-based
- Design: dose 10 mg/kg, route oral
- Applied Conditions: in vivo
Measured Property: Cmax
Answer with the number, then the unit.

Short answer for "O=C(/C=C/c1cccn(Cc2ccc3ccccc3n2)c1=O)NO" : Cmax was 142 ng/mL

----------
Quick reference: IC50 of the listed items.
- Tested System: Histone deacetylase
- Measurement Description: Inhibition of HDAC in human HeLa cell nuclear extract using Fluor de Lys as substrate incubated with compound for 30 mins by microtiter-plate reading flourimeter analysis
- Type: protein assay
The figure you give is taken to be in nM; do not add the unit.

1. CC(C)(C)c1ccc(CCn2cccc(/C=C/C(=O)NO)c2=O)cc1; 110
2. O=C(/C=C/c1cccn(CCCc2cccc(Br)c2)c1=O)NO; 100
3. O=C(/C=C/c1cccn(Cc2cccnc2)c1=O)NO; 300
4. O=C(/C=C/c1cccn(CCCc2ccc(Br)cc2)c1=O)NO; 210
5. O=C(/C=C/c1cccn(CCCc2cccnc2)c1=O)NO; 570
6. COc1ccc(Cn2cccc(/C=C/C(=O)NO)c2=O)cc1; 380

Readout IC50 for "CCc1ccc(Cn2cccc(/C=C/C(=O)NO)c2=O)cc1" , test system Histone deacetylase, was 100

Sample "O=C(/C=C/c1cccn(CCc2ccccn2)c1=O)NO" , system: Histone deacetylase. Its IC50 is 3940

Tested on Histone deacetylase, the item "CC(C)(C)c1ccc(Cn2cccc(/C=C/C(=O)NO)c2=O)cc1" showed IC50 equal to 90

Test item "O=C(/C=C/c1cccn(Cc2ccc3ccccc3n2)c1=O)NO" ; Histone deacetylase; reported IC50 was 30
